B1: library; numbered along this chain (parent)
chain: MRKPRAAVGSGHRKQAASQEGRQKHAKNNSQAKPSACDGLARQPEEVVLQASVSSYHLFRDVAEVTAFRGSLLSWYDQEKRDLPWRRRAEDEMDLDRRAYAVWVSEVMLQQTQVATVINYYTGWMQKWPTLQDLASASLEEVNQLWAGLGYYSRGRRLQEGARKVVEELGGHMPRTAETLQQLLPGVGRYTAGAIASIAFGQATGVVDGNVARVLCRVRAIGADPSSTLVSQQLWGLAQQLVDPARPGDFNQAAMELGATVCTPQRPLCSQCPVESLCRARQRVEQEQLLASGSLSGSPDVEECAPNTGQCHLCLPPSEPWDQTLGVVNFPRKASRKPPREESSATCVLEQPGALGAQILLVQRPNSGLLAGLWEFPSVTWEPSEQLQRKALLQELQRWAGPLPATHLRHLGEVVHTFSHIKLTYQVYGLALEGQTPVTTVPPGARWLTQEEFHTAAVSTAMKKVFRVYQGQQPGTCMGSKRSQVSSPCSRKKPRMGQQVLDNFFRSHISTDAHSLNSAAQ

Variants of: B1
Assay: 8OG:A repair function score (normalized; synonymous = 0, nonsense = -1) (normalized log-likelihood score); higher = more repair activity (WT-like);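 also: cells sorted at 72 h after reporter transfection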
Conditions: with 8OG:A DNA repair reporter (GFP) in HEK-293 MUTYH KO cells
Just so you know, the groups by 8OG:A repair function score go like this: band 1: < -0.3; band 2: ≥ -0.3 and < -0.04; band 3: ≥ -0.04

variant.identifier	assigned.label
A223E	band 2
M108E	band 1
S378G	band 2
R175Y	band 2
T122V	band 3
L430R	band 1
T406N	band 3
V284M	band 3
R409G	band 1
Y100G	band 1
L295W	band 3
C278Y	band 1
V485K	band 3
Q323Y	band 3
M125L	band 2
S343I	band 2
S378R	band 2
E275V	band 3
G201K	band 3
M108I	band 1
W235A	band 2
V427R	band 1
A354H	band 2
P488E	band 3
V65L	band 3
L393G	band 2
P264Q	band 2
F453A	band 1
V438F	band 2
G161R	band 1
P84I	band 2
F466M	band 2
L183A	band 3
